# Assay method text: ROS inducers in U2OS cancer cells, primary screen, cell-based, H2DCF-DA fluorescence (AID 624156);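 note: 0% = DMSO vehicle median and 100% = reference compound median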
# Measurement context: at 10 µM
The campaign covered roughly 46,000 compounds. About 900 (2%) were called active. Not shown: some 1% with an inconclusive outcome. Cut-off read from the data, not from the text of the source: active = ROS induction above about 79% (passing the limit was not always enough); inconclusive = no clear call, values can overlap the other calls. The list comes from a sample in which actives are over-represented; it also holds close analogues and randomly drawn compounds.
Use one of these outcomes when replying: TRUE = active, FALSE = inactive

Examples from the recorded data:
CN(C(=O)c1noc2c1CSc1ccccc1-2)c1cccc(C(F)(F)F)c1 ... FALSE
C=CCN(C(=O)Cc1ccc(OC)cc1)c1nnc(-c2ccc(Cl)cc2)s1 ... FALSE
CC(=O)Nc1ccc(NC(=O)CN(c2ccccc2Br)S(C)(=O)=O)cc1 ... FALSE

GET /call?item= O=C(CN(Cc1ccc(Cl)cc1Cl)S(=O)(=O)c1ccccc1)N1CCCC1 returns the recorded outcome of this test.
FALSE

How about this compound: CNC[C@@H]1Oc2c(NC(=O)Nc3ccccc3)cccc2C(=O)N([C@@H](C)CO)C[C@@H]1C
FALSE

* * *

# Assay method text: ROS inducers in U2OS cancer cells, primary screen, cell-based, H2DCF-DA fluorescence (AID 624156);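 note: 0% = DMSO vehicle median and 100% = reference compound median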
# Measurement context: at 10 µM, stronger effect = higher value
About 900 (2%) of roughly 46,000 compounds were called active. Not shown: some 1% with an inconclusive outcome. Only a selection was taken, and actives are over-represented in it overall.
Attribute measured: ROS induction (% of piperlongumine) (%)
One number for each entry, in %.

# example entries with known answers
Cc1ccc(-n2c(SCC(=O)Nc3cccc(C)c3C)nc3ccccc3c2=O)cc1 ... -0.837
O=C(Nc1ccccc1Cl)c1ccccc1S(=O)(=O)c1ccccc1[N+](=O)[O-] ... 134

Turning now to a further molecule:
// query ROS induction (% of piperlongumine) value for entry CC(C)(C)C(=O)CSc1nc2ccccc2c(=O)n1CC1CC1
120

* * *

# Assay method text: ROS inducers in U2OS cancer cells, primary screen, cell-based, H2DCF-DA fluorescence (AID 624156);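 note: 0% = DMSO vehicle median and 100% = reference compound median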
# Measurement context: at 10 µM
Hit rate of the full screen: of about 46,000 compounds, about 900 (2%) were called active. About 1% were inconclusive and are not listed. Rule as the data show it: active = ROS induction above about 79% (passing the limit was not always enough); inconclusive = no clear call, values can overlap the other calls. Only a selection was taken, and actives are over-represented in it overall.
Use one of these outcomes when replying: yes = active, no = inactive

Examples from the recorded data:
Cn1c(COc2ccc(C(C)(C)c3ccccc3)cc2)n[nH]c1=S ... no
CCOC(=O)c1c(C)n(C)c2ccccc12 ... no
COC(=O)/C=C1\SC(=NC(=O)c2ccc(F)cc2)NC1=O ... no
COC(=O)C(CC#Cc1ccc2c(c1)[C@]1(C(=O)N2)[C@H](c2ccccc2OCCO)N2[C@H](c3ccccc3)[C@H](c3ccccc3)OC(=O)[C@H]2[C@@H]1C(N)=O)C(=O)OC ... yes

GET /call?item= CNC[C@H]1Oc2ccc(NS(=O)(=O)c3cn(C)cn3)cc2C(=O)N([C@@H](C)CO)C[C@@H]1C returns the recorded outcome of this test.
no

How about this molecule: O=C1O[C@H](c2ccccc2)[C@H](c2ccccc2)N2[C@H]1[C@@H](C(=O)N1CCN(c3ncccn3)CC1)[C@]1(C(=O)Nc3ccccc31)[C@H]2c1ccc(OCCO)cc1
no

How about this molecule: O=C(N/N=C/c1cc(F)ccc1O)c1ccccc1O
no

How about this molecule: O=C(c1cc([N+](=O)[O-])ccc1NCc1cccnc1)N1CCOCC1
no

How about this molecule: Cc1noc(C)c1NC(=O)Nc1ccc2c(c1)C(=O)N([C@H](C)CO)C[C@@H](C)[C@H](CN(C)Cc1ccncc1)O2
no

* * *

# Assay method text: ROS inducers in U2OS cancer cells, primary screen, cell-based, H2DCF-DA fluorescence (AID 624156);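 note: 0% = DMSO vehicle median and 100% = reference compound median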
# Measurement context: at 10 µM, stronger effect = higher value
Screen size: about 46,000 compounds; about 900 (2%) were called active. Another 1% or so got no clear call; they are omitted. What follows is part of a selection rich in actives, with near analogues and random picks from the rest.
Decide using ROS induction (% of piperlongumine): a value greater than or equal to 40% is 1, a smaller one is 0.

Examples from the recorded data:
CCN(CC)c1nc(C#N)nc(OC)n1 ... 1
O=C(CCCCCCC(=O)Nc1ccccc1O)N/N=C/c1ccc(C(F)(F)F)cc1 ... 0
O=C(Nc1cccc(-c2nc3ccccc3o2)c1)c1ccc(Br)cc1 ... 0
C=CC[C@]1(C(=O)NCC(O)CO)N=C(c2ccc(OCCCO)cc2)O[C@H]1c1ccccc1 (stereo not given in full) ... 0
C[C@@H]1CN([C@H](C)CO)C(=O)c2cccc(NS(=O)(=O)c3ccc(F)cc3)c2O[C@H]1CN(C)Cc1ccc(Oc2ccccc2)cc1 ... 1

Reported ROS induction (% of piperlongumine) reaches at least 40% for C[C@@H]1CN([C@H](C)CO)C(=O)Cc2cc(NC(=O)Cc3ccccc3)ccc2O[C@@H]1CN(C)Cc1ccccc1 ?
0

How about this compound: C[C@H]1CN([C@@H](C)CO)C(=O)c2cccc(NS(=O)(=O)c3ccc(Cl)cc3)c2O[C@@H]1CN(C)Cc1ccc(Oc2ccccc2)cc1
0

How about this compound: COC(=O)c1ccc(-c2ccco2)n1CC(=O)NC1CCCC1
0

How about this compound: COc1ccc(C=Nc2ccc(C(C)(C)C)cc2)cc1
0

How about this compound: C[C@@H]1CN([C@@H](C)CO)C(=O)Cc2cc(NC(=O)Cc3ccccc3)ccc2O[C@@H]1CN(C)Cc1ccc(Oc2ccccc2)cc1
1

How about this compound: CC(C)NC(=O)c1ccc2c(c1)N(Cc1ccccc1)C(=O)CS2
0

How about this compound: O=C(COC(=O)c1cc2ccccc2cc1O)c1ccc(OCc2ccccc2)cc1
0

How about this compound: COc1ccc(CN(C)C[C@H]2Oc3ccc(NC(=O)Cc4ccccc4)cc3CC(=O)N([C@@H](C)CO)C[C@@H]2C)cc1
1

* * *

# Assay method text: ROS inducers in U2OS cancer cells, primary screen, cell-based, H2DCF-DA fluorescence (AID 624156);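 note: 0% = DMSO vehicle median and 100% = reference compound median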
# Measurement context: at 10 µM, stronger effect = higher value
Among all 46,000 compounds or so, about 900 (2%) were called active. Roughly 1% stayed inconclusive and do not appear here. What follows is part of a selection rich in actives, with near analogues and random picks from the rest.
Attribute measured: ROS induction (% of piperlongumine) (%)
Answers are plain numbers, in %.

# example entries with known answers
CO[C@H]1O[C@H](CO)[C@@H](OC(=O)Nc2ccccc2-c2ccccc2)[C@H](OC(=O)Nc2ccccc2)[C@H]1OC(=O)Nc1ccccc1 ... 132
COC(=O)C1=C[C@@H](O)[C@@H](O)[C@H](O[C@@H]2O[C@H](CO)[C@@H](O)[C@H](O)[C@H]2OC(=O)/C=C/c2ccccc2)C1 ... -5.34

Turning now to a further compound:
// query ROS induction (% of piperlongumine) value for entry C[C@@H]1CN([C@@H](C)CO)C(=O)c2cc(NC(=O)CCCN(C)C)ccc2O[C@H]1CN(C)Cc1ccccc1
-15.8

* * *

# Assay method text: ROS inducers in U2OS cancer cells, primary screen, cell-based, H2DCF-DA fluorescence (AID 624156);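 note: 0% = DMSO vehicle median and 100% = reference compound median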
# Measurement context: at 10 µM, stronger effect = higher value
The whole screen tested about 46,000 compounds, of which about 900 (2%) were called active. Not shown: some 1% with an inconclusive outcome. What follows is part of a selection rich in actives, with near analogues and random picks from the rest.
Attribute measured: ROS induction (% of piperlongumine) (%)
One number for each entry, in %.

# example entries with known answers
FC(F)(F)c1cccc(NC(=S)Nc2cc(-c3cccs3)[nH]n2)c1 ... -6.71
S=C(NCCc1ccc(Cl)cc1)Nc1ccccc1 ... -13.7

Provide each entry's ROS induction (% of piperlongumine) from the list below.
1. C[C@@H]1CN([C@H](C)CO)C(=O)c2cc(NC(=O)Nc3ccccc3)ccc2O[C@H]1CN(C)S(=O)(=O)c1ccc(F)cc1
2. CCOC(=O)c1nnn2c1nc(N1CCN(c3ccccc3)CC1)c1ccccc12

1. 9.94
2. 155

Provide each entry's ROS induction (% of piperlongumine) from the list below.
1. Cc1ccc(S(=O)(=O)N(C)C[C@@H]2Oc3ccc(NC(=O)Cn4cnnn4)cc3CC(=O)N([C@H](C)CO)C[C@H]2C)cc1
2. CC1CCN(C(=O)CCNS(=O)(=O)c2cccc3nsnc23)CC1
3. Cc1cc(-c2cccs2)c2c(N)c(C(=O)c3ccccc3)sc2n1
4. COc1ccc(C2NNC(=S)S2)cc1 (configuration not stated)
5. C[C@@H]1CN([C@H](C)CO)C(=O)c2cc(NC(=O)NC3CCCCC3)ccc2O[C@H]1CN(C)S(C)(=O)=O
6. O=C(CCCn1c(=O)c2cccn2c2ccccc21)N1CCCCC1

101
-19.6
95.7
-8.92
-3.72
-0.17

Provide each entry's ROS induction (% of piperlongumine) from the list below.
1. COC(=O)c1ccc(NC(=S)N2CCOCC2)cc1
2. CC1C=CCC2C(=O)N(c3cccc(Cl)c3)C(=O)C12 (configuration not stated)

-2.33
-5.69
